Measured values drawn from PubChem BioAssay (NCI) for this set.

Test system: HOP-18 NSCLC
ASSAY METHOD TEXT: NCI tumour cell line growth inhibition, 48 h
TGI listing for selected compounds.

COMPOUND	TARGET	TGI
CN(C)c1ccc(/C=C/c2ccc(/C=C/c3ccc(N(C)C)cc3)cc2)cc1	HOP-18 NSCLC	> 100 µM
CN(C)c1nnnn1-c1c(N)n(C)c(=O)n(C)c1=O	HOP-18 NSCLC	> 100 µM
NC(=O)c1c([N+](=O)[O-])cc(C(F)(F)F)cc1[N+](=O)[O-]	HOP-18 NSCLC	> 100 µM
COP(=O)(OC)C(NC(=O)C(F)(F)F)(c1ccccc1)C(F)(F)F (stereo not drawn)	HOP-18 NSCLC	> 100 µM
O=[N+]([O-])c1ccccc1S(=O)(=O)c1ccccc1	HOP-18 NSCLC	> 100 µM
O=C1c2ccccc2C(=O)c2c(O)c(NCCCNCCO)cc(O)c21	HOP-18 NSCLC	17.5 µM
O=C(CCC(=O)Nc1ccc(Cl)c(Cl)c1)CC(=O)c1ccc(F)cc1	HOP-18 NSCLC	> 100 µM
Cc1noc2c1C(=O)CCC2	HOP-18 NSCLC	> 100 µM
ON(Cc1ccccc1)C(=S)c1ccccc1	HOP-18 NSCLC	> 100 µM
CC1(C)O[C@@H](CCl)C[C@H](C#N)O1	HOP-18 NSCLC	> 100 µM
O=S(=O)(O)c1ccc(N=Nc2nc(C(F)(F)F)c(C(F)(F)F)[nH]2)cc1	HOP-18 NSCLC	> 100 µM
CCC/C=C1\CCC(CN(C)C)C1=O (stereo not drawn)	HOP-18 NSCLC	39 µM
N#CC1CCCCOCCOCCOCCOCCOCCCCCC1=O (stereo not drawn)	HOP-18 NSCLC	> 100 µM

----------
Test system: HL-60(TB) leukemia
ASSAY METHOD TEXT: NCI tumour cell line growth inhibition, 48 h; in the data active = GI50 below about 0.43 µM; inactive = the rest
Classes used: True = active, False = inactive

MOLECULE	TARGET	CLASSIFICATION
O=C(O)c1cn(C2CC2)c2cc(N3CCN(C(=O)Nc4nc(-c5ccccc5)cs4)CC3)c(F)cc2c1=O	HL-60(TB) leukemia	False
O=C(CN1CCN(c2cc3c(cc2F)c(=O)c(C(=O)O)cn3C2CC2)CC1)Nc1nc(-c2ccc(Cl)cc2)cs1	HL-60(TB) leukemia	False
Brc1ccc2[nH]cc(-c3nc(-c4c[nH]c5ncccc45)cs3)c2c1	HL-60(TB) leukemia	False
CC1=CC(=O)C(C(C)C)=CC1=Nc1cc(Br)c(O)c(Br)c1	HL-60(TB) leukemia	False
O=[N+]([O-])c1ccc(Oc2nc(Nc3ccc(O[C@H]4CO[C@H]5[C@@H]4OC[C@@H]5O)c(Cl)c3)ncc2F)c(Cl)c1	HL-60(TB) leukemia	False
CC(C)N1CCN(Cc2ccc3c(NNC(=O)c4ccccc4)nc4cc(F)ccc4n23)CC1	HL-60(TB) leukemia	True
N#Cc1c(Br)n(C2OC(CO)C(O)C2O)c2ncnc(N)c12 (stereo not given)	HL-60(TB) leukemia	False
COc1cc(-c2cc(-c3ccc(Nc4ccnc5cc(Cl)ccc45)cc3)nc(N3CCOCC3)n2)cc(OC)c1OC	HL-60(TB) leukemia	False
CCOc1cc(Br)c(C(C)NC(=O)c2cccc(OC)c2)cc1OCC (stereo not given)	HL-60(TB) leukemia	False
COc1ccc(C(c2ccc(OCCN(C)C)cc2)c2cc3ccccc3c3ccccc23)cc1 (stereo not given)	HL-60(TB) leukemia	False
